Just for reference, paper PMC11017252 is where these values come from.

Test system: chicken embryos
TEST: Ex-ovo chick chorioallantoic membrane (CAM) assay
Type: in vivo
STATED_CONDITIONS: 24 h, IC50, vs DMSO control
READOUT_NAME: formation of new blood vessels after 24 h

- MOLECULE: "F[P-](F)(F)(F)(F)F.F[P-](F)(F)(F)(F)F.[Cl][Cu].[Cl][Cu].c1ccc(-c2cc(-c3ccco3)cc(-c3ccccn3)n2)nc1.c1ccc(-c2cc(-c3ccco3)cc(-c3ccccn3)n2)nc1 [complex 5, [Cu2Cl2(4′-(2-Furanyl)-terpy)2](PF6)2]"
  RESULT_VALUE: "antiangiogenic potential"
- MOLECULE: "COc1ccc(-c2cc(-c3ccccn3)nc(-c3ccccn3)c2)c2ccccc12.COc1ccc(-c2cc(-c3ccccn3)nc(-c3ccccn3)c2)c2ccccc12.F[P-](F)(F)(F)(F)F.F[P-](F)(F)(F)(F)F.[Cl][Cu+].[Cl][Cu+] [complex 3]"
  RESULT_VALUE: "antiangiogenic potential"

====

Tested on: normal human primary dermal fibroblasts
TEST: MTS cell viability assay, normal fibroblasts
Assay type: cell-based
STATED_CONDITIONS: 48 h of exposure
Rule: IC50 below 6 µM gives Satisfied. Equal to or above 6 µM gives Not satisfied.

The following compounds have reported results that may help.
- COMPOUND: "F[P-](F)(F)(F)(F)F.F[P-](F)(F)(F)(F)F.[Cl][Cu].[Cl][Cu].c1ccc(-c2cc(-c3ccco3)cc(-c3ccccn3)n2)nc1.c1ccc(-c2cc(-c3ccco3)cc(-c3ccccn3)n2)nc1 [complex 5, [Cu2Cl2(4′-(2-Furanyl)-terpy)2](PF6)2]"
  ASSIGNED_LABEL: "Not satisfied"
- COMPOUND: "CCn1c2ccccc2c2cc(-c3cc(-c4ccccn4)nc(-c4ccccn4)c3)ccc21.CCn1c2ccccc2c2cc(-c3cc(-c4ccccn4)nc(-c4ccccn4)c3)ccc21.F[P-](F)(F)(F)(F)F.F[P-](F)(F)(F)(F)F.[Cl][Cu].[Cl][Cu]"
  ASSIGNED_LABEL: "Not satisfied"
- COMPOUND: "F[P-](F)(F)(F)(F)F.F[P-](F)(F)(F)(F)F.[Cl][Cu].[Cl][Cu].c1ccc(-c2cc(-c3ccnc4ccccc34)cc(-c3ccccn3)n2)nc1.c1ccc(-c2cc(-c3ccnc4ccccc34)cc(-c3ccccn3)n2)nc1 [complex 2, [Cu2Cl2(4′-(4-Quinolyl)-terpy)2](PF6)2]"
  ASSIGNED_LABEL: "Not satisfied"

IC50 under 6 µM? Item: F[P-](F)(F)(F)(F)F.F[P-](F)(F)(F)(F)F.[Cl][Cu].[Cl][Cu].c1ccc(-c2cc(-c3cccc4ccccc34)cc(-c3ccccn3)n2)nc1.c1ccc(-c2cc(-c3cccc4ccccc34)cc(-c3ccccn3)n2)nc1 [complex 1, [Cu2Cl2(4′-(1-Naphthyl)-terpy)2](PF6)2]
Satisfied

IC50 under 6 µM? Item: c1ccc(-c2cc(-c3cccc4ccccc34)cc(-c3ccccn3)n2)nc1
Not satisfied

IC50 under 6 µM? Item: COc1ccc(-c2cc(-c3ccccn3)nc(-c3ccccn3)c2)c2ccccc12.COc1ccc(-c2cc(-c3ccccn3)nc(-c3ccccn3)c2)c2ccccc12.F[P-](F)(F)(F)(F)F.F[P-](F)(F)(F)(F)F.[Cl][Cu+].[Cl][Cu+]
Not satisfied

====

Tested on: normal human primary dermal fibroblasts
TEST: MTS cell viability assay, normal fibroblasts
Format: cell-based
STATED_CONDITIONS: 48 h of exposure
Exercise: state measured IC50 for each of the compounds provided.
Give bare numbers, in µM.

Sample answers from the record:
- COMPOUND: "COc1ccc2c(OC)ccc(-c3cc(-c4ccccn4)nc(-c4ccccn4)c3)c2c1.COc1ccc2c(OC)ccc(-c3cc(-c4ccccn4)nc(-c4ccccn4)c3)c2c1.F[P-](F)(F)(F)(F)F.F[P-](F)(F)(F)(F)F.[Cl][Cu].[Cl][Cu]"
  READOUT_NAME: "IC50"
  UNITS_OF_MEASURE: "µM"
  RESULT_VALUE: 2.64
- COMPOUND: "COc1ccc2c(OC)ccc(-c3cc(-c4ccccn4)nc(-c4ccccn4)c3)c2c1"
  READOUT_NAME: "IC50"
  UNITS_OF_MEASURE: "µM"
  RESULT_VALUE: 13.1

Now consider the entry below.
Jot down IC50 (normal human primary dermal fibroblasts) of F[P-](F)(F)(F)(F)F.F[P-](F)(F)(F)(F)F.[Cl][Cu].[Cl][Cu].c1ccc(-c2cc(-c3ccccn3)nc(-c3ccccn3)c2)nc1.c1ccc(-c2cc(-c3ccccn3)nc(-c3ccccn3)c2)nc1 [complex 7, [Cu2Cl2(4′-(2-Pyridynyl)-terpy)2](PF6)2] .
16.1

====

Tested on: HCT116DoxR cells
TEST: Annexin V-FITC/PI apoptosis assay by flow cytometry
STATED_CONDITIONS: 48 h; complexes at IC50, Dox 6 μM, cisplatin 5 μM
READOUT_NAME: cells (%) viable
Lab note: write values as number then unit, every time.

Sample answers from the record:
- COMPOUND: "F[P-](F)(F)(F)(F)F.F[P-](F)(F)(F)(F)F.[Cl][Cu].[Cl][Cu].c1ccc(-c2cc(-c3ccnc4ccccc34)cc(-c3ccccn3)n2)nc1.c1ccc(-c2cc(-c3ccnc4ccccc34)cc(-c3ccccn3)n2)nc1 [complex 2, [Cu2Cl2(4′-(4-Quinolyl)-terpy)2](PF6)2]"
  cells (%) viable: "29.7 ± 6.3%"
- COMPOUND: "F[P-](F)(F)(F)(F)F.F[P-](F)(F)(F)(F)F.[Cl][Cu].[Cl][Cu].c1ccc(-c2cc(-c3ccccn3)nc(-c3ccccn3)c2)nc1.c1ccc(-c2cc(-c3ccccn3)nc(-c3ccccn3)c2)nc1 [complex 7, [Cu2Cl2(4′-(2-Pyridynyl)-terpy)2](PF6)2]"
  cells (%) viable: "52.5 ± 6.7%"
- COMPOUND: "COc1cccc2c1C(=O)c1c(O)c3c(c(O)c1C2=O)C[C@@](O)(C(=O)CO)C[C@@H]3O[C@H]1C[C@H](N)[C@H](O)[C@H](C)O1 [Dox, doxorubicin, reference compound]"
  cells (%) viable: "59.8 ± 3.8%"
- COMPOUND: "F[P-](F)(F)(F)(F)F.F[P-](F)(F)(F)(F)F.[Cl][Cu].[Cl][Cu].c1ccc(-c2cc(-c3ccco3)cc(-c3ccccn3)n2)nc1.c1ccc(-c2cc(-c3ccco3)cc(-c3ccccn3)n2)nc1 [complex 5, [Cu2Cl2(4′-(2-Furanyl)-terpy)2](PF6)2]"
  cells (%) viable: "33.9 ± 5.3%"

Now consider the entry below.
Jot down cells (%) viable (HCT116DoxR cells) of COc1ccc(-c2cc(-c3ccccn3)nc(-c3ccccn3)c2)c2ccccc12.COc1ccc(-c2cc(-c3ccccn3)nc(-c3ccccn3)c2)c2ccccc12.F[P-](F)(F)(F)(F)F.F[P-](F)(F)(F)(F)F.[Cl][Cu+].[Cl][Cu+] .
33.7 ± 3.6%

====

System: HCT116DoxR cells
TEST: Annexin V-FITC/PI apoptosis assay by flow cytometry
STATED_CONDITIONS: 48 h; complexes at IC50, cisplatin 5 μM
READOUT_NAME: fold increase in apoptotic cells, normalized to DMSO

Sample answers from the record:
- COMPOUND: "F[P-](F)(F)(F)(F)F.F[P-](F)(F)(F)(F)F.[Cl][Cu].[Cl][Cu].c1ccc(-c2cc(-c3ccccn3)nc(-c3ccccn3)c2)nc1.c1ccc(-c2cc(-c3ccccn3)nc(-c3ccccn3)c2)nc1 [complex 7, [Cu2Cl2(4′-(2-Pyridynyl)-terpy)2](PF6)2]"
  RESULT_VALUE: "5 fold"
- COMPOUND: "COc1ccc(-c2cc(-c3ccccn3)nc(-c3ccccn3)c2)c2ccccc12.COc1ccc(-c2cc(-c3ccccn3)nc(-c3ccccn3)c2)c2ccccc12.F[P-](F)(F)(F)(F)F.F[P-](F)(F)(F)(F)F.[Cl][Cu+].[Cl][Cu+]"
  RESULT_VALUE: "~6.4 fold"
- COMPOUND: "F[P-](F)(F)(F)(F)F.F[P-](F)(F)(F)(F)F.[Cl][Cu].[Cl][Cu].c1ccc(-c2cc(-c3ccco3)cc(-c3ccccn3)n2)nc1.c1ccc(-c2cc(-c3ccco3)cc(-c3ccccn3)n2)nc1 [complex 5, [Cu2Cl2(4′-(2-Furanyl)-terpy)2](PF6)2]"
  RESULT_VALUE: "~6.4 fold"

Jot down fold increase in apoptotic cells, normalized to DMSO (HCT116DoxR cells) of F[P-](F)(F)(F)(F)F.F[P-](F)(F)(F)(F)F.[Cl][Cu].[Cl][Cu].c1ccc(-c2cc(-c3ccnc4ccccc34)cc(-c3ccccn3)n2)nc1.c1ccc(-c2cc(-c3ccnc4ccccc34)cc(-c3ccccn3)n2)nc1 [complex 2, [Cu2Cl2(4′-(4-Quinolyl)-terpy)2](PF6)2] .
~6.4 fold

====

Exercise: state measured IC50 for each of the molecules provided.
Tested on: normal human primary dermal fibroblasts
TEST: MTS cell viability assay, normal fibroblasts
Assay type: cell-based
STATED_CONDITIONS: 48 h of exposure

Sample answers from the record:
- MOLECULE: "c1ccc(-c2cc(-c3ccnc4ccccc34)cc(-c3ccccn3)n2)nc1 [L2]"
  RESULT_VALUE: "> 50 µM"
- MOLECULE: "c1ccc(-c2cc(-c3ccco3)cc(-c3ccccn3)n2)nc1 [L5]"
  RESULT_VALUE: "> 50 µM"

Now consider the entry below.
Provide measured IC50 value, entry: CCn1c2ccccc2c2cc(-c3cc(-c4ccccn4)nc(-c4ccccn4)c3)ccc21 [L8]
~10 µM
